Test system: Wnt5a (protein binding on small-molecule microarray)
protocol-notes: Wnt5a binders on small-molecule microarray, primary screen, biophysical, 635/667 nm fluorescence (AID 1142);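 further: fluorescence read at 667 nm with signal to noise per printed feature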
applied-conditions: 635 nm fluorescence, higher = more signal
Everything with composite z-score lower than 0.08 is NO; everything else, including exactly 0.08, is YES.

compound: CC(C)[C@@H](OCc1ccccc1)[C@H](C)CON=C1[C@H]2CCn3c(=O)n(-c4ccccc4)c(=O)n3[C@H]2[C@H](O)[C@@H]2O[C@H]12
class: YES
//
compound: C=CC[C@@H]1C=C[C@H](ON=C2C[C@@H](O)[C@@H](O)[C@@H]3[C@@H]4C(=O)N(CC)C(=O)[C@@H]4CC[C@@H]23)[C@@H](CO)O1
class: NO
//
compound: CCOC(=O)[C@H](Cc1ccccc1)NC(=O)CCC1CC(OC(=O)NCc2cccc3ccccc23)CC2(CCCC(COC(=O)NCc3ccc4c(c3)OCO4)O2)O1 (some centres not stated)
class: YES
//
compound: COCC#Cc1ccc([C@@H]2N[C@H](C(=O)O)CC[C@H]2C)cc1
class: NO
//
compound: C[C@@H]1CC[C@@H](C(=O)O)N[C@H]1c1cccc(N2CCOCC2)c1
class: NO

Next compound, please.
Request: Could you verify whether the entry CCCC[C@H]1CN2[C@@H](CC[C@@H](C)[C@@H]2c2ccc(Br)cc2)C(=O)O1 shows composite z-score of no less than 0.08?
Response: YES

* * *

Test system: Lefty1
protocol-notes: Lefty1 binders on small-molecule microarrays, primary screen, biochemical, small-molecule microarray, 635/667 nm fluorescence (AID 1139)
applied-conditions: small-molecule microarray binding, fluorescence 635/667; higher = more signal
Everything with composite z-score lower than 0.3 is not met; everything else, including exactly 0.3, is met.

molecule: COC(=O)[C@@H]1CC[C@H](C)[C@@H](c2ccc(Br)cc2)N1C[C@H](O)CN=[N+]=[N-]
class: not met

molecule: CC(CCN1CCc2nc(-c3ccccc3)c(-c3ccccc3)cc2C1)=NO[C@H](C)c1cn([C@H](CO)Cc2ccccc2)nn1
class: met

molecule: CCOC(=O)[C@H](CC(C)C)NC(=O)CCC1CC(OC(=O)NCCc2ccc(F)cc2)CC2(CCCC(COC(=O)NCc3cccc4ccccc34)O2)O1 (stereo not given in full)
class: met

molecule: CO[C@H]1C[C@@H]2C[C@H](O)CC(CC(=O)O[C@@H](C=CCC(C)C)C[C@@H]3CC[C@H](C)[C@@H](C1)O3)O2
class: met

molecule: C=CCOCC1CN2[C@@H](CC[C@@H](C)[C@@H]2c2ccc(Br)cc2)C(=O)O1 (stereo not given in full)
class: not met

molecule: COC(=O)[C@H](C)NC(=O)CCC1CC(OC(=O)NCc2cccc3ccccc23)CC2(CCCC(COC(=O)NCCCN3CCCC3=O)O2)O1 (stereo not given in full)
class: met

Request: Could you verify whether the entry C#CCCCON=C1C[C@@H](O)[C@@H](O)[C@@H]2[C@@H]3C(=O)N([C@@H](C)c4ccccc4)C(=O)[C@@H]3CC[C@@H]12 shows composite z-score of no less than 0.3?
Response: not met

Request: Could you verify whether the entry CC(CCN1CCCc2nc(C)c(C)cc21)=NOC[C@@H](C)[C@H](OCc1ccccc1)C(C)C shows composite z-score of no less than 0.3?
Response: not met

Request: Could you verify whether the entry CC(C)[C@@H](OCc1ccccc1)[C@H](C)CON=C1[C@H]2CCn3c(=O)n(-c4ccccc4)c(=O)n3[C@H]2[C@H](O)[C@@H]2O[C@H]12 shows composite z-score of no less than 0.3?
Response: met

Request: Could you verify whether the entry C[C@@H]1CC[C@@H](C(=O)O)N[C@H]1c1cccc(N2CCOCC2)c1 shows composite z-score of no less than 0.3?
Response: met

Request: Could you verify whether the entry COc1ccc(COC(=O)NN=C2C[C@@H](O)[C@@H](O)[C@@H]3[C@@H]4C(=O)N(Cc5ccc6c(c5)OCO6)C(=O)[C@@H]4CC[C@H]23)cc1 shows composite z-score of no less than 0.3?
Response: not met

Request: Could you verify whether the entry CC(=O)OC[C@H]1O[C@@H](ON=C(C)CCC(=O)OC[C@H]2O[C@H](C#Cc3ccccc3)C=C[C@@H]2Oc2ccc(C)cc2)[C@H](OC(C)=O)[C@@H](OC(C)=O)[C@@H]1OC(C)=O shows composite z-score of no less than 0.3?
Response: met

Request: Could you verify whether the entry C[C@H]1CC[C@H]2C(=O)O[C@H](CO)CN2[C@@H]1c1ccc(Br)cc1 shows composite z-score of no less than 0.3?
Response: met
